Assay: viability loss with induced miR-34 in A549 – imaging, A549 dox-inducible miR-34, nuclei and caspase counts, primary screen (AID 1347080)
Details: A549 miR-34 inducible, Hoechst nuclei count, 48 h; measured here: total cells without miR-34 induction
Give measured cell count for each item. Keep answers brief.
Form: value (number only, do not type unit).

Prompt: Entry "CCNC(=O)c1noc(-c2cc(Cl)c(O)cc2O)c1-c1ccc(OC)cc1" has what cell count?
Response: 2420

Prompt: Input "O=C(Cn1nc(Cc2ccccc2)c2ccccc2c1=O)NCCc1ccco1"
Response: 9130

Prompt: Input "c1ccc(CNc2ncnc3nc[nH]c23)cc1"
Response: 7640

Prompt: Input "CC(=O)O[C@]1(C(C)=O)CC[C@H]2[C@@H]3C=C(C)C4=CC(=O)CC[C@@H]4[C@H]3CC[C@@]21C"
Response: 9330

Prompt: Input COc1cc(N(C)CC2COc3ccccc3O2)nc(N)n1 (stereo not given)
Response: 4140

====

Test: viability loss with induced miR-34 in A549 – imaging, A549 dox-inducible miR-34, nuclei and caspase counts, primary screen (AID 1347080)
Settings: A549 miR-34 inducible, Hoechst nuclei count, 48 h; measured here: total cells without miR-34 induction
readout.label: cell count

Prompt: Entry CCNC(=O)CCCC=CCC1C(O)CC(O)C1C=CC(O)CCc1ccccc1 (stereo not given) has what cell count?
Response: 7250

Prompt: Input "O=C(Cc1noc2ccccc12)NCCOc1cccnc1"
Response: 10700

Prompt: Input "CCCOC(=O)c1c(-c2ccccc2)nc(CC)c(C(=O)SCC)c1CCC"
Response: 8910

Prompt: Input CCC(C(C)O)n1ncn(-c2ccc(N3CCN(c4ccc(OCC5CO[C@@](Cn6cncn6)(c6ccc(F)cc6F)C5)cc4)CC3)cc2)c1=O (stereo not given in full)
Response: 4130

Prompt: Input "Cc1ccccc1CN1C2=NCCN2C(=O)C2=C1CCN(Cc1ccccc1)C2"
Response: 9120

====

Assay: growth inhibition, single agents and combos, ICB984, cell-based, cisplatin or BGB combos, synergistic combos for chromothripsis tumors (AID 1671451);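 also: cells exposed for 96 hours before readout; 0% = vehicle DMSO and 100% = killing by high DMSO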
Details: ICB984 medulloblastoma cells, drug combinations, BGB IC20 combo, at 0.005 µM, stronger effect = higher value
Non-standard residues stand in square brackets, D forms with d. Residues, ends and D or L forms follow the SMILES beside them. Dolaproine = CO[C@@H]([C@@H]1CCCN1)[C@@H](C)C(=O)O; Dil = CC[C@H](C)[C@H](NC)[C@@H](CC(=O)O)OC; NMeV = CN[C@H](C(=O)O)C(C)C
readout.label: inhibition
State the value with its unit after it.

Prompt: Entry CC(C=CC(=O)NO)=CC(C)C(=O)c1ccc(N(C)C)cc1 (centres undefined) has what inhibition?
Response: 83.1%

Prompt: Input "O=C(CCCCCCC(=O)NO)NO"
Response: -20.4%

Prompt: Input "O=C(O)c1cc2cccc([N+](=O)[O-])c2[nH]1"
Response: -35.7%

Prompt: Input "O=c1[nH]c(=S)[nH]c2nc(-c3ccccc3)c(-c3ccccc3)nc12"
Response: -5.97%

Prompt: Input CCC1(O)C(=O)OCc2c1cc1n(c2=O)Cc2cc3cc(O)ccc3nc2-1 (centres undefined)
Response: -7.43%

Prompt: Input "Cc1ccc(NC(=O)CCCCCC(=O)Nc2ccccc2N)cc1"
Response: -3.62%

Prompt: Input "Cn1cc(-c2cnn3c(N)c(Br)c([C@H]4CCCNC4)nc23)cn1"
Response: -13.9%

Prompt: Input "Cc1cc(C#N)cc(C)c1Oc1nc(Nc2ccc(C#N)cc2)nc(N)c1Br"
Response: -6.67%

Prompt: Input C=C(NC(=O)C(=C)NC(=O)c1csc(C2=NC3c4csc(n4)C4NC(=O)c5csc(n5)C(C(C)(O)C(C)O)NC(=O)C5CSC(=N5)/C(=C/C)NC(=O)C(C(C)O)NC(=O)c5csc(n5)C3(CC2)NC(=O)C(C)NC(=O)C(=C)NC(=O)C(C)NC(=O)C(C(C)CC)NC2C=Cc3c(C(C)O)cc(nc3C2O)C(=O)OC4C)n1)C(N)=O (centres undefined)
Response: 7.79%

Prompt: Input Cc1cn(C2CC(O)C(COP(=O)(O)OP(=O)(O)OP(=O)(O)O)O2)c(=O)[nH]c1=O (centres undefined)
Response: 10.7%

Prompt: Input "COc1ccccc1S(=O)(=O)Nc1ccc2c(c1)CN(C)C(=O)N2"
Response: 0.625%

Prompt: Input "O=C(CCCCCCC(=O)Nc1ccc(I)cc1)NO"
Response: -14%

Prompt: Input COc1cccc2c1C(=O)c1c(O)c3c(c(O)c1C2=O)CC(O)(C(=O)CO)CC3OC1CC(N)C(OC2CCCCO2)C(C)O1 (centres undefined)
Response: -23.2%

Prompt: Input O=c1ccn(C2CC(O)C(CO)O2)c(=O)[nH]1 (centres undefined)
Response: 4%

Prompt: Input C=C(C)C1CCC2(C(=O)O)CCC3(C)C(CCC4C5(C)CCC(O)C(C)(C)C5CCC43C)C12 (centres undefined)
Response: -15.2%

Prompt: Input CON=C1CN(c2nc3c(cc2F)c(=O)c(C(=O)O)cn3C2CC2)CC1CN (centres undefined)
Response: -9.19%

Prompt: Input "COc1nc(N)nc2c1ncn2[C@@H]1O[C@H](CO)[C@@H](O)[C@H]1O"
Response: -28.6%

Prompt: Input N#Cc1ccc(OC2CCC(NC(=O)CCSc3nc4ccccc4c(=O)[nH]3)CC2)cc1 (centres undefined)
Response: -4.21%

Prompt: Input "CO[C@H]1/C=C/O[C@@]2(C)Oc3c(C)c(O)c4c(O)c(c5c(c4c3C2=O)=NC2(CCN(CC(C)C)CC2)N=5)NC(=O)/C(C)=C\C=C\[C@H](C)[C@H](O)[C@@H](C)[C@@H](O)[C@@H](C)[C@H](OC(C)=O)[C@@H]1C"
Response: 3.39%

Prompt: Input "Cc1c(Br)cc(NCC(=O)N/N=C/c2cc([N+](=O)[O-])ccc2O)cc1Br"
Response: -14%

Prompt: Input "C[C@@H]1O[C@@H](O[C@@H]2[C@@H](O)[C@H](OCCc3ccc(O)c(O)c3)O[C@H](CO)[C@H]2OC(=O)C=Cc2ccc(O)c(O)c2)[C@H](O)[C@H](O)[C@H]1O"
Response: -21.2%

Prompt: Input "COc1ccc(-c2nc(-c3cc(C(F)(F)F)cc(C(F)(F)F)c3)n(Cc3ccc(C(N)=O)cc3)c2-c2ccc(OC)cc2)cc1"
Response: -2.07%

Prompt: Input "Cc1cc(C)cc(C(=O)NOCCCCCC(=O)NO)c1"
Response: 3.29%

Prompt: Input Nc1ncn(C2OC(CO)C(O)C2O)c(=O)n1 (centres undefined)
Response: 3.99%

Prompt: Input CC[C@H](C)[C@@H]([C@@H](CC(=O)N1CCC[C@H]1[C@H](OC)[C@@H](C)C(=O)N[C@@H](Cc1ccccc1)C(=O)O)OC)N(C)C(=O)[C@@H](NC(=O)[C@@H](NC)C(C)C)C(C)C (H-[NMeV]V[Dil][Dolaproine]F-OH)
Response: -18.1%

Prompt: Input CCC(C)C(=O)OC1CC(C)C=C2C=CC(C)C(CCC3CC(O)CC(=O)O3)C21 (centres undefined)
Response: 0.285%

Prompt: Input "Cc1cc(C=CC#N)cc(C)c1Nc1ccnc(Nc2ccc(C#N)cc2)n1"
Response: -0.887%

Prompt: Input "C=C1C(=O)O[C@@H]2C=C(C)CCC=C(C)CC[C@@H]12"
Response: 4.25%

Prompt: Input "NC(=S)NN=Cc1ncccc1N"
Response: -9.24%

Prompt: Input "Nc1nc(NC2CC2)cc(-c2cccc(Cl)c2Cl)n1"
Response: -16.3%

Prompt: Input NC(=O)c1cccc2cn(-c3ccc(C4CCCNC4)cc3)nc12 (centres undefined)
Response: -10.7%

Prompt: Input "O=C1C(=Cc2cccnc2)C(=O)c2ccccc21"
Response: 0.337%

Prompt: Input "CC(C)C(=O)SCCCCCCC(=O)Nc1nc(-c2ccccc2)cs1"
Response: 16.1%

Prompt: Input O=c1[nH]cnc2c1ncn2C1CCC(CO)O1 (centres undefined)
Response: 3.8%

Prompt: Input CC(C)OC(=O)[C@H](C)NP(=O)(OC[C@H]1O[C@@H](n2ccc(=O)[nH]c2=O)C(C)(F)[C@@H]1O)Oc1ccccc1 (some centres undefined)
Response: -1.44%

Prompt: Input Cc1cn(C2C=CC(CO)O2)c(=O)[nH]c1=O (centres undefined)
Response: -4.4%

Prompt: Input "O=C1N=c2ccccc2=C1c1c(O)[nH]c2ccccc12"
Response: 11.6%

Prompt: Input C#CCC(CCCCCC)C(=O)O (centres undefined)
Response: -2.69%

Prompt: Input CC1OC(n2cc(F)c(=O)[nH]c2=O)C(O)C1O (centres undefined)
Response: -5.88%

====

Assay: drug combination growth inhibition, ovarian cancer – cell-based, oncology-focused library, rucaparib conditional, profiling panel (AID 1508598)
Settings: patient-derived ovarian cancer cells, CellTiter-Glo viability, 144 h; at 0.00122 µM; OCI-C5x cells; without rucaparib; stronger effect = lower value
Give measured viability for each item. Keep answers brief.
Give the value in % but do not write % after it.

Prompt: Entry "C[C@@]1(c2nc3c(C(N)=O)cccc3[nH]2)CCCN1" has what viability?
Response: 114

Prompt: Input "CO[C@H]1C[C@H]2CC[C@@H](C)[C@@](O)(O2)C(=O)C(=O)N2CCCC[C@H]2C(=O)O[C@H]([C@H](C)C[C@@H]2CC[C@H](OC(=O)C(C)(CO)CO)[C@H](OC)C2)CC(=O)[C@H](C)/C=C(\C)[C@@H](O)[C@@H](OC)C(=O)[C@H](C)C[C@H](C)/C=C/C=C/C=C/1C"
Response: 95.7

Prompt: Input "CN(C)CCOc1ccc(-c2nc(-c3ccc4c(c3)CCC4=NO)c(-c3ccncc3)[nH]2)cc1"
Response: 132

Prompt: Input "CC(C)(C(=O)NCC(F)(F)C(F)(F)F)C(=O)N[C@H]1C(=O)Nc2ccccc2-c2ccccc21"
Response: 111

Prompt: Input CCCCCOC(=O)Nc1nc(=O)n([C@@H]2O[C@H](C)[C@@H](O)C2O)cc1F (stereo not given in full)
Response: 120

Prompt: Input "O=c1[nH]c(=O)n([C@@H]2C[C@H](O)[C@@H](CO)O2)cc1F"
Response: 117

Prompt: Input CCC1=CC2CN(C1)Cc1c([nH]c3ccccc13)[C@@](C(=O)OC)(c1cc3c(cc1OC)N(C)[C@H]1[C@@](O)(C(=O)OC)[C@H](OC(C)=O)[C@]4(CC)C=CCN5CC[C@@]31[C@H]54)C2 (stereo not given in full)
Response: 70.1

Prompt: Input "COc1ccc(C2=N[C@@H](c3ccc(Cl)cc3)[C@H](c3ccc(Cl)cc3)N2C(=O)N2CCNC(=O)C2)c(OC(C)C)c1"
Response: 104

Prompt: Input "CO[C@H]1/C=C\C=C(\C)C(=O)NC2=CC(=O)C(NCCN(C)C)=C(C[C@@H](C)C[C@H](OC)[C@H](O)[C@@H](C)/C=C(\C)[C@@H]1OC(N)=O)C2=O"
Response: 109

Prompt: Input "Cc1[nH]c(C=C2C(=O)Nc3ccc(S(=O)(=O)Cc4c(Cl)cccc4Cl)cc32)c(C)c1C(=O)N1CCC[C@@H]1CN1CCCC1"
Response: 115

Prompt: Input "CCOc1ccc(Cc2cc([C@@H]3O[C@H](CO)[C@@H](O)[C@H](O)[C@@H]3O)ccc2Cl)cc1"
Response: 108

Prompt: Input "CCOC(=O)c1cnc2ccc(-c3cncc(NS(=O)(=O)c4ccccc4)c3)cn12"
Response: 102

Prompt: Input "C[C@]12CC[C@H]3c4ccc(O)cc4CC[C@H]3[C@@H]1CC[C@H]2O"
Response: 111

Prompt: Input "CN(C)CCSSCCNC(=O)C1CCN(C(=O)CSc2ccc(Cl)cc2)CC1"
Response: 112

Prompt: Input "CC1=C(/C=C/C(C)=C\C=C\C(C)=C/C(=O)O)C(C)(C)CCC1"
Response: 105
